Test system: human embryonic stem cell derived neural stem cells (NSCs)
test: Neural stem cell proliferation assay (neurogenesis assay)
Assay type: cell-based
conditions.used: Homo sapiens, Neural stem cell, 96 h; Table 2, known compounds; concentration at which 150% activity of control (100%) is reached; ATP levels (CellTiterGlo) after 4 days incubation
Rule: EC (150% of control) below 2 µM gives fulfilled, anything at or above gives not fulfilled.

Please review the following examples before continuing.
COc1ccccc1CNC(=O)c1ccc2cncc(-c3ccccc3)c2n1 [Example 194]: fulfilled
O=C(NC1CCN(Cc2ccccc2)CC1)c1ccc2cncc(-c3ccccc3)c2n1 [Example 193]: fulfilled
COc1ccc(-c2cncc3ccc(C(=O)N4CCCCC4)nc23)cc1 [Example 183]: fulfilled
COc1ccc(-c2cncc3ccc(C(=O)NCc4ccc(C(F)(F)F)nc4)nc23)cc1 [Example 186]: fulfilled
COc1ccc(-c2cncc3ccc(C(=O)N4CCOCC4)nc23)cc1 [Example 182]: not fulfilled
NC(=O)c1ccc2cncc(Br)c2n1 [Example 206, 8-Bromo-1,6-naphthyridine-2-carboxamide]: fulfilled

# check: EC (150% of control) < 2 µM for COCCNC(=O)c1ccc2cncc(-c3ccccc3)c2n1 [Example 204]
fulfilled

# check: EC (150% of control) < 2 µM for O=C(NCc1ccc(C(F)(F)F)nc1)c1ccc2cncc(-c3ccccc3)c2n1 [Example 196]
not fulfilled

# check: EC (150% of control) < 2 µM for O=C(c1ccc2cncc(-c3cc4ccccc4o3)c2n1)N1CCCCC1 [Example 205]
not fulfilled

# check: EC (150% of control) < 2 µM for COc1ccc(-c2cncc3ccc(C(=O)N4CCN(c5ccccn5)CC4)nc23)cc1 [Example 185]
fulfilled
